Origin of values: ChEMBL document CHEMBL3988442

Kindly state Percent Effect for each of the entries shown.
test system: Wolbachia pipientis; assay: Anti-Wolbachia Cell-Based Screen; type: functional; design: scale not given: in the data most compounds retested in dose-response had high values; conditions: 5 µM
The whole screen tested about 48,000 compounds, of which about 13,000 (27%) showed an effect of 50% or more. The list shows a part of the results.
Return type: number; implicit unit %.

Q: Reported Percent Effect for C=Cn1ncc(CN2C[C@@H]3CCCN3C[C@H]2Cc2ccccc2)c1C : what is it?
Result: 116.6

Q: # input compound: Cc1nc(C(=O)N(C)C2CC(=O)N(Cc3ccccc3)C2=O)cs1 (stereo not given) ; wanted: its Percent Effect
Result: -12.75

Q: Which Percent Effect is reported for this compound? C=Cn1ncc(CN2C[C@@H]3C[C@@H](O)CN3C[C@@H]2Cc2ccccc2)c1C
Result: 135.2

Q: Data request, read-out Percent Effect, for NC(=O)c1cc(-n2cc(-c3cccc(C(=O)O)c3)cn2)cs1
Result: -1.419

Q: What does the data say about its Percent Effect? Entry: Cc1nccn1-c1cccc(C2CCCN2S(=O)(=O)c2cn(C)cn2)n1 (stereo not given)
Result: -2.327

Q: // returns reported Percent Effect for input COCC1CC2(CCN(CC3CC3)CC2)CN1c1ncccn1.O=C(O)C(F)(F)F.O=C(O)C(F)(F)F (stereo not given)
Result: 9.926

Q: GET /values?readout=Percent Effect&item= C=Cn1ncc(CN2C[C@@H]3CCCN3C[C@@H]2CCSC)c1C
Result: 137.5

Q: Need Percent Effect of Cn1cnc(S(=O)(=O)N2CCCn3cnc(CN4CCCC4)c3C2)c1 , thanks.
Result: 1.863

Q: Fill in: Percent Effect of Cc1ccc(CNCC2CCCn3ccnc32)s1 (stereo not given) is ___
Result: -4.636

Q: I have this compound here, Cc1ccccc1S(=O)(=O)NC(=O)CSc1ccc2c(c1)OCCO2 , and I need its recorded Percent Effect.
Result: -12.34

Q: Item under review: O=C(NCc1cccs1)NCC(O)(c1cccs1)C1CC1 (stereo not given) . Reported Percent Effect?
Result: 4.96

Q: For the compound shown here, CCn1cc(C(=O)n2nc(C)cc2C)c(S(=O)(=O)N2CCCCC2)n1 , give the reported Percent Effect.
Result: -19.19

Q: Name the recorded Percent Effect for C=Cn1ncc(CN2C[C@@H]3CCCN3C[C@@H]2Cc2ccccc2)c1C .
Result: -5.258

Q: Given the compound O=C(CN1CCCS1(=O)=O)Nc1ccc(OC(F)F)cc1 , what is its reported Percent Effect?
Result: 5.702

Q: Can you share its Percent Effect? I mean this compound: O=C(CN1C(=O)CCC1=O)N1CCC(S(=O)(=O)Cc2ccco2)CC1
Result: 3.229

---

What Percent Effect was measured for each of the following?
system: Wolbachia pipientis; assay: Anti-Wolbachia Cell-Based Screen; format: functional; design: scale not given: in the data most compounds retested in dose-response had high values; details: 5 µM
Screen size: about 48,000 compounds; about 13,000 (27%) showed an effect of 50% or more. The list shows a part of the results.
Record the value in %, omitting the unit from your answer.

Q: Value lookup for Percent Effect; key = CNC(=O)c1cc2c(nc1NCC(C)C)CCN(CCOC)CC2.O=C(O)C(F)(F)F.O=C(O)C(F)(F)F
Result: 1.626

Q: What value of Percent Effect has been recorded for this entry: CCn1ncc2c1C(COC)N(C(=O)c1ccc3c(c1)OCO3)CC2.O=C(O)C(F)(F)F (stereo unspecified)
Result: 10.43

Q: Entry COCCN1CCc2cc(C(=O)NC(C)C)c(NCC3CC3)nc2CC1.O=C(O)C(F)(F)F.O=C(O)C(F)(F)F has what Percent Effect?
Result: 103.7

Q: Need Percent Effect, item O=C(O)C(F)(F)F.O=C(c1cnccn1)N1CC[C@@H]2CO[C@@H](CN3CCCC3)[C@@H]2C1
Result: -10.73

Q: Field request: Percent Effect | item: CN1[C@H](CN2CCCC2)C[C@@H]2CN(C(=O)Cc3ccsc3)CC[C@@H]21.O=C(O)C(F)(F)F.O=C(O)C(F)(F)F
Result: 88.77

Q: Query (compound): C[C@@H]1C[C@@H]2CCN(C(=O)c3cnccn3)C[C@H]2O1 ; field requested: Percent Effect
Result: -10.48

Q: Quick check: Percent Effect of CCOc1ccc2c(c1)C=C(C(=O)NC(C)Cn1cccn1)CO2 (stereo unspecified) ?
Result: 15.57

Q: What value of Percent Effect has been recorded for this entry: CCCC(=O)N(C)c1cccc2ncccc12
Result: -4.906

Q: Name the recorded Percent Effect for CCCC(=O)N(C)C(c1cccc(F)c1)c1ccccn1 (stereo unspecified) .
Result: 104.7

Q: Fill blank: measured Percent Effect of the compound Cc1ccc(S(=O)(=O)NCC2CNCCOC2)cc1Cl (stereo unspecified) is ____.
Result: -1.884

Q: // Percent Effect lookup, key: CC1CCN(CCNC(=O)Nc2ccc(F)cc2Cl)CC1
Result: 1.976

---

system: Wolbachia pipientis; assay: Anti-Wolbachia Cell-Based Screen; format: functional; set-up: scale not given: in the data most compounds retested in dose-response had high values; conditions: 5 µM
Out of some 48,000 compounds screened, about 13,000 (27%) showed an effect of 50% or more. This is one part of the list.
experimental-endpoint: Percent Effect (%)
Give just the number in %; leave the unit off.

Q: Endpoint output: Percent Effect of COc1ccc(CNC(Cc2ccsc2)c2ccc(C)cn2)cc1OC.Cl (centres undefined) . Value?
Result: 112.1

Q: Consider the compound shown here: Cc1cccc(CN2CCc3ncnc(N4CCCC4)c3CC2)n1.O=C(O)C(F)(F)F What is its recorded Percent Effect?
Result: 88.17

Q: Value lookup for Percent Effect; key = COc1ccc(Cc2nnc3n2N=C(C(C)(C)C)CS3)cc1
Result: 3.244

Q: Given the compound Cc1cccc(CN2CCc3ncnc(N4CCN(C)CC4)c3CC2)n1.O=C(O)C(F)(F)F.O=C(O)C(F)(F)F , what is its reported Percent Effect?
Result: 101.7

---

tested on: Wolbachia pipientis; assay: Anti-Wolbachia Cell-Based Screen; assay type: functional; set-up: scale not given: in the data most compounds retested in dose-response had high values; conditions: 5 µM
The campaign covered roughly 48,000 compounds. About 13,000 (27%) showed an effect of 50% or more. The list shows a part of the results.
experimental-endpoint: Percent Effect (%)
# unit: % | format: bare number

Q: Bench note: what Percent Effect did COc1ccc2c(=O)n(CC3CC3)ccc2c1OC show?
Result: 8.638

Q: I have this compound here, O=C(C1CCOC1)N1CCN(Cc2cccnc2)c2ncccc2C1 (stereo not drawn) , and I need its recorded Percent Effect.
Result: 79.91

Q: Field request: Percent Effect | item: O=C(COc1ccccc1C(F)(F)F)NCCNC(=O)c1ccccc1
Result: -6.371

Q: Fill in the blank: the reported Percent Effect of Cc1cnn(CC2CCCCN2C(=O)c2sccc2C#N)c1 (stereo not drawn) is ____.
Result: -11.17

Q: # get_value(readout='Percent Effect', item= CC(NC(=O)c1ccc(CS(C)(=O)=O)o1)c1ccc(F)c(F)c1 (stereo not drawn) )
Result: -18.18

Q: Any idea what its Percent Effect is? The compound is Cc1ccc(C(NC(=O)CCNC(=O)c2ccoc2)C(F)(F)F)cc1 (stereo not drawn)
Result: 20.44

Q: Returns the measured Percent Effect for the input compound. Input: Cn1cc(-c2csc(CN3CCOCC3)n2)cn1
Result: -11.66

Q: What measured Percent Effect goes with Cn1cc(C2(C)CN(Cc3ccc(O)c(Cl)c3)CCO2)cn1 (stereo not drawn) ?
Result: -11.09

---

system: Wolbachia pipientis; assay: Anti-Wolbachia Cell-Based Screen; type: functional; parameters: scale not given: in the data most compounds retested in dose-response had high values; settings: 5 µM
Out of some 48,000 compounds screened, about 13,000 (27%) showed an effect of 50% or more. The list shows a part of the results.
experimental-endpoint: Percent Effect (%)
Please give a number only; it is taken to be in %.

Q: Give recorded Percent Effect with Wolbachia pipientis for the following molecule: CN(Cc1csc2ccccc12)C(=O)NC1CCS(=O)(=O)C1 (centres undefined)
Result: -6.965

Q: What measured Percent Effect is associated with Cc1ccc(OCC(=O)NS(=O)(=O)c2cccnc2)cc1C on Wolbachia pipientis?
Result: -7.985

Q: Lab note: need Percent Effect with Wolbachia pipientis for entry CCOCCN1CCN(CC(O)c2cc(Cl)ccc2Cl)CC1 (centres undefined) , please look it up.
Result: 18.57

Q: Form: Entry = CS(=O)(=O)NCC(=O)NCc1cccnc1-n1cnc2ccccc21 | System = Wolbachia pipientis | Percent Effect = ____
Result: 9.043

Q: Please tell me: Percent Effect of COc1ccc(-c2noc(Cn3cc4c(n3)CCC4)n2)c(OC)c1OC , system Wolbachia pipientis?
Result: 2

Q: Wolbachia pipientis / Percent Effect / CN(C)C(=O)N1CC2(CCN(S(C)(=O)=O)CC2)c2ccccc21 : value?
Result: 1.836

Q: Find Percent Effect (Wolbachia pipientis) for the entry CS(=O)(=O)N1CC2(CCN(C3CCCCC3)C2)Cc2ccccc21 (centres undefined)
Result: 120

Q: Form field: Percent Effect recorded for O=C(NC1CCC(N2C(=O)CCC2=O)CC1)c1c[nH]c2ccccc12 (centres undefined) with Wolbachia pipientis (enter value)
Result: -1.536

Q: Entry O=C1N(Cc2ccc(F)c(F)c2)CCCC12CCN(C1CCCCC1)C2 (centres undefined) , system Wolbachia pipientis: what Percent Effect was measured?
Result: -2.682
